biological target: BCL2 WT (Homo sapiens (Human)); experiment: TR-FRET competitive binding assay, BCL2 WT; conditions: Ki determined from IC50, read-out: TR_FRET EKI_Bcl2 WT
Sequence (P10415 other isoform, or with tags, fused parts or gaps): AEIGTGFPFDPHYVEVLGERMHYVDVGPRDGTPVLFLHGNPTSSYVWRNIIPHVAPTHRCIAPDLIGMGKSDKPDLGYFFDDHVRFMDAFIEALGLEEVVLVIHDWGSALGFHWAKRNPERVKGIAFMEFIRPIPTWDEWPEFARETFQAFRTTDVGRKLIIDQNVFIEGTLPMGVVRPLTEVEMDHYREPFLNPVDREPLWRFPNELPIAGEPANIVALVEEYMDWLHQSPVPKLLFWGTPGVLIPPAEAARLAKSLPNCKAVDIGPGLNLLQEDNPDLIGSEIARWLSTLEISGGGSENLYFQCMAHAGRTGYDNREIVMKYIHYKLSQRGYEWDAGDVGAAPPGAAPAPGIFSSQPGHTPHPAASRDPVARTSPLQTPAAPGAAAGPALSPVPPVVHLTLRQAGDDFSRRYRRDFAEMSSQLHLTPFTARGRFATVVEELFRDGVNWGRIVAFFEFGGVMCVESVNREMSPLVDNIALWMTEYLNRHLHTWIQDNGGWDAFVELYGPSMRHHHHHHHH
Define the label as true when Ki is strictly less than 0.05 nM and as false in all remaining cases.

Prompt: Strictly below 0.05 nM in Ki? Cc1c(N(C(=O)c2cc(-c3cc4c(cc3C(=O)N3Cc5ccccc5C[C@H]3C)CN(C(=O)Cc3ccc(N5CCC(N6CCOCC6)C5)cc3)CC4)n(C)c2C)c2ccc(O)cc2)cc(C#N)n1C (single isomer, unassigned) [Example 63]
Completion: false

Prompt: Strictly below 0.05 nM in Ki? Cc1c(N(C(=O)c2cc(-c3cc4c(cc3C(=O)N3Cc5ccccc5C[C@H]3C)CN(C(=O)Cc3cccc(N5CCN6CCOC[C@@H]6C5)c3)CC4)n(C)c2C)c2ccccc2)cc(C#N)n1C [Example 8]
Completion: false

Prompt: Strictly below 0.05 nM in Ki? Cc1c(N(C(=O)c2cc(-c3cc4c(cc3C(=O)N3Cc5ccccc5C[C@H]3C)CN(C(=O)Cc3ccc(OCCN(C)C5CC5)nc3)CC4)n(C)c2C)c2ccc(O)cc2)cc(C#N)n1C [Example 61]
Completion: true

Prompt: Strictly below 0.05 nM in Ki? Cc1c(N(C(=O)c2cc(-c3cc4c(cc3C(=O)N3Cc5ccccc5C[C@H]3CN3CCOCC3)CN(C(=O)Cc3ccc(OCCC5CCOCC5)cc3F)CC4)n(C)c2C)c2ccc(O)cc2)cc(C#N)n1C [Example 54]
Completion: false

* * *

system: BCL2 G101V; assay: TR-FRET competitive binding assay, BCL2 G101V; set-up: species or system human; details: ratio Ki BCL2 G101V / Ki BCL2 WT
A collection of compounds and their measured TR_FRET EKI G101V/WT selectivty ratio
API doc: respond with a numeric literal and nothing else, no unit.

Record excerpt, results attached:
{"columns": ["smiles_input", "measured_property", "endpoint_value"],
 "data": [
  ["COc1ncc(N(C(=O)c2cc(-c3cc4c(cc3C(=O)N3Cc5ccccc5C[C@H]3C)CN(C(=O)Cc3ccc(OCCN5CCOCC5)cc3)CC4)n(C)c2C)c2ccccc2)cc1F", "TR_FRET EKI G101V/WT selectivty ratio", 43.8],
  ["Cc1cc(O)ccc1N(C(=O)c1cc(-c2cc3c(cc2C(=O)N2Cc4ccccc4C[C@H]2C)CN(C(=O)Cc2ccccc2)CC3)n(C)c1C)c1cc(C#N)n(C)c1C", "TR_FRET EKI G101V/WT selectivty ratio", 5.8],
  ["Cc1cc(OCCN2CCOCC2)ccc1CC(=O)N1CCc2cc(-c3cc(C(=O)N(c4ccc(O)cc4)c4cc(C#N)n(C)c4C)c(C)n3C)c(C(=O)N3Cc4ccccc4C[C@H]3CN3CCCCC3)cc2C1", "TR_FRET EKI G101V/WT selectivty ratio", 5.2]
]}

Prompt: Return reported TR_FRET EKI G101V/WT selectivty ratio; argument: `Cc1c(N(C(=O)c2cc(-c3cc4c(cc3C(=O)N3Cc5ccccc5C[C@H]3CN3CCCCC3)CN(C(=O)Cc3ccc(OCCN5CCC(F)(F)C5)cc3)CC4)n(C)c2C)c2ccc(O)cc2)cc(C#N)n1C`
Completion: 6.7

Prompt: Return reported TR_FRET EKI G101V/WT selectivty ratio; argument: `Cc1c(N(C(=O)c2cc(-c3cc4c(cc3C(=O)N3Cc5ccccc5C[C@H]3C)CN(C(=O)Cc3ccc(OCCN5CCOC6(CC6)C5)cc3)CC4)n(C)c2C)c2ccc(O)cc2)cc(C#N)n1C`
Completion: 5.5

Prompt: Return reported TR_FRET EKI G101V/WT selectivty ratio; argument: `COc1ccc(N(C(=O)c2cc(-c3cc4c(cc3C(=O)N3Cc5ccccc5C[C@H]3CN(C)C(C)C)CN(C(=O)Cc3ccc(OCCN5CCOCC5)cc3F)CC4)n(C)c2C)c2ccc(O)cc2)cc1C#N`
Completion: 14.7

Prompt: Return reported TR_FRET EKI G101V/WT selectivty ratio; argument: `Cc1c(N(C(=O)c2cc(-c3cc4c(cc3C(=O)N3Cc5ccccc5C[C@H]3CN3CCCCC3)CN(C(=O)Cc3ccc(OCCN5CCN(CCF)CC5)cc3F)CC4)n(C)c2C)c2ccc(O)cc2)cc(C#N)n1C`
Completion: 5.3
